Hello, the source for this data is patent US12157730B2, in case you need it.

Molecular target: Ba/F3 cell EGFR Exon20 ins NPH (Homo sapiens, UniProt P00533, INS773NPH)
Construct: expressed in transfected cells; host or cells: Ba/F3
Assay: Ba/F3 cell proliferation suppression, EGFR Exon20 ins NPH
Assay type: cell-based
Settings: GI50 class; Ba/F3 cell line with NPH inserted at Exon20 of EGFR; 72 hours
quantityName: Ba/F3 (NPH) Activity

{"cpdSmiles": "C=CC(=O)Nc1cc(Nc2cc(N3OCC[C@@H]3c3cccc(OC)c3)ncn2)c(OC)cc1N1CCC(N2CCOCC2)CC1", "quantityName": "Ba/F3 (NPH) Activity", "valueMeasured": "A (GI50 < 50 nM)"}
{"cpdSmiles": "C=CC(=O)Nc1cc(Nc2cc(N3OCC[C@@H]3c3cccc(Cl)c3F)ncn2)c(OC)cc1N1CC[C@@H](N(C)C)C1", "quantityName": "Ba/F3 (NPH) Activity", "valueMeasured": "A (GI50 < 50 nM)"}
{"cpdSmiles": "C=CC(=O)Nc1cc(Nc2cc(N3OCC[C@@H]3Cc3cccc(Cl)c3Cl)ncn2)c(OC)cc1N1CCC(N2CCN(C3CC3)[C@@H](C)C2)CC1", "quantityName": "Ba/F3 (NPH) Activity", "valueMeasured": "A (GI50 < 50 nM)"}

----------
Target: Ba/F3 cell EGFR L858R (Homo sapiens, UniProt P00533, L858R)
Construct: expressed in transfected cells; host or cells: Ba/F3
Assay: Ba/F3 cell proliferation suppression, EGFR L858R
Type: cell-based
Conditions: 72 hours after treatment, CellTiter-Glo
Consider the following compounds; for each one, report its GI50.

Illustrative cases are given below, each with its answer.
{"compound": "C=CC(=O)Nc1cc(Nc2cc(N3OCC[C@@H]3c3cc(F)cc(F)c3)ncn2)c(OC)cc1N1CC[C@@H](N(C)C)C1 [Example 242]", "system": "Ba/F3 cell EGFR L858R (Homo sapiens, UniProt P00533, L858R)", "GI50": "< 0.05 µM"}
{"compound": "C=CC(=O)Nc1cc(Nc2cc(N3OCC[C@@H]3c3ccccc3)ncn2)ccc1N(C)CCN(C)C [Example 28]", "system": "Ba/F3 cell EGFR L858R (Homo sapiens, UniProt P00533, L858R)", "GI50": "< 0.05 µM"}
{"compound": "C=CC(=O)Nc1cc(Nc2cc(N3OCC[C@H]3c3ccccc3)ncn2)c(OC)cc1N1CCOCC1 [Example 2]", "system": "Ba/F3 cell EGFR L858R (Homo sapiens, UniProt P00533, L858R)", "GI50": "0.05 to 0.5 µM"}
{"compound": "C=CC(=O)Nc1cc(Nc2cc(N3OCC[C@@H]3c3ccccc3)ncn2)c(OC)cc1N(C)CCN(C)C [Example 4]", "system": "Ba/F3 cell EGFR L858R (Homo sapiens, UniProt P00533, L858R)", "GI50": "< 0.05 µM"}

Ask: Fill in the blank: the reported GI50 of C=CC(=O)Nc1cc(Nc2cc(N3OCC[C@@H]3c3ccccc3)ncn2)c(OC)cc1N1CCN(CC)CC1 [Example 15] is ____.
Result: < 0.05 µM

----------
Biological target: Ba/F3 cell EGFR Exon20 ins NPH (Homo sapiens, UniProt P00533, INS773NPH)
Construct: expressed in transfected cells; host or cells: Ba/F3
Assay: Ba/F3 cell proliferation suppression, EGFR Exon20 ins NPH
Type: cell-based
Conditions: GI50 class; Ba/F3 cell line with NPH inserted at Exon20 of EGFR; 72 hours
quantityName: Ba/F3 (NPH) Activity

{"cpdSmiles": "C=CC(=O)Nc1cc(Nc2cc(N3OCC[C@@H]3c3ccc(F)cc3F)ncn2)c(OC)cc1N1CCC(N(C)CCN(C)C)CC1", "valueMeasured": "A (GI50 < 50 nM)"}
{"cpdSmiles": "C=CC(=O)Nc1cc(Nc2cc(N3OCC[C@@H]3c3cc(F)cc(F)c3)ncn2)c(OC)cc1N1CCN(C)[C@H](C)C1", "valueMeasured": "A (GI50 < 50 nM)"}
{"cpdSmiles": "C=CC(=O)Nc1cc(Nc2cc(N3OCC[C@@H]3c3cccc(F)c3F)ncn2)c(OC)cc1N1CCC(N2CCC(F)(F)CC2)CC1", "valueMeasured": "A (GI50 < 50 nM)"}
{"cpdSmiles": "C=CC(=O)Nc1cc(Nc2cc(N3OCC[C@@H]3c3cccc(Cl)c3)ncn2)c(OC)cc1N1CCN(C(C)=O)CC1", "valueMeasured": "A (GI50 < 50 nM)"}
{"cpdSmiles": "C=CC(=O)Nc1cc(Nc2cc(N3OCC[C@@H]3c3cc(F)cc(F)c3)ncn2)c(OC)cc1N1CCC(N2CCO[C@@H](C)C2)CC1", "valueMeasured": "A (GI50 < 50 nM)"}
{"cpdSmiles": "C=CC(=O)Nc1cc(Nc2cc(N3OCC[C@@H]3c3cccc(Cl)c3F)ncn2)c(OC)cc1N1CCC(N2CCN(C3CCCC3)CC2)CC1", "valueMeasured": "A (GI50 < 50 nM)"}
{"cpdSmiles": "C=CC(=O)Nc1cc(Nc2cc(N3OCC[C@@H]3c3ccc(Cl)cc3F)ncn2)c(OC)cc1N1CCC(N2CCN(CC)CC2)CC1", "valueMeasured": "A (GI50 < 50 nM)"}

Ask: For the compound shown here, C=CC(=O)Nc1cc(Nc2cc(N3OCC[C@@H]3c3cccc(Cl)c3C)ncn2)c(OC)cc1N1CCC(N2CCC(F)(F)CC2)CC1 , give the reported Ba/F3 (NPH) Activity.
Result: A (GI50 < 50 nM)

----------
Biological target: Ba/F3 cell EGFR Exon20 ins NPH (Homo sapiens, UniProt P00533, INS773NPH)
Construct: expressed in transfected cells; host or cells: Ba/F3
Experiment: Ba/F3 cell proliferation suppression, EGFR Exon20 ins NPH
Format: cell-based
Details: GI50 class; Ba/F3 cell line with NPH inserted at Exon20 of EGFR; 72 hours
quantityName: Ba/F3 (NPH) Activity

Recorded Ba/F3 (NPH) Activity, per entry:
{"molecule": "C#Cc1cccc([C@H]2CCON2c2cc(Nc3cc(NC(=O)C=C)c(N(C)CCN(C)C)cc3OC)ncn2)c1 [compound 616]", "system": "Ba/F3 cell EGFR Exon20 ins NPH (Homo sapiens, UniProt P00533, INS773NPH)", "quantityName": "Ba/F3 (NPH) Activity", "valueMeasured": "A (GI50 < 50 nM)"}
{"molecule": "C=CC(=O)Nc1cc(Nc2cc(N3OCC[C@@H]3c3ccc(F)c(Cl)c3F)ncn2)c(OC)cc1N1CCC(N2CCOCC2)CC1 [compound 606]", "system": "Ba/F3 cell EGFR Exon20 ins NPH (Homo sapiens, UniProt P00533, INS773NPH)", "quantityName": "Ba/F3 (NPH) Activity", "valueMeasured": "A (GI50 < 50 nM)"}
{"molecule": "C=CC(=O)Nc1cc(Nc2cc(N3OCC[C@@H]3c3cc(F)cc(Cl)c3)ncn2)c(OC)cc1N1CCC(O)CC1 [compound 591]", "system": "Ba/F3 cell EGFR Exon20 ins NPH (Homo sapiens, UniProt P00533, INS773NPH)", "quantityName": "Ba/F3 (NPH) Activity", "valueMeasured": "A (GI50 < 50 nM)"}
{"molecule": "C=CC(=O)Nc1cc(Nc2cc(N3OCC[C@@H]3c3cc(F)cc(F)c3)ncn2)c(OC)cc1OCCC(C)(C)OC [compound 495]", "system": "Ba/F3 cell EGFR Exon20 ins NPH (Homo sapiens, UniProt P00533, INS773NPH)", "quantityName": "Ba/F3 (NPH) Activity", "valueMeasured": "A (GI50 < 50 nM)"}

Need Ba/F3 (NPH) Activity for each of these molecules.
1. C=CC(=O)Nc1cc(Nc2cc(N3OCC[C@@H]3Cc3cccc(F)c3C)ncn2)c(OC)cc1N1CCC(N2CCN(C3CC3)[C@H](C)C2)CC1 [compound 1004]
2. C=CC(=O)Nc1cc(Nc2cc(N3OCC[C@@H]3c3cccc(OC)c3)ncn2)c(OC)cc1N1CC[C@@H](N(C)C)C1 [compound 776]

Result:
1: A (GI50 < 50 nM); 2: A (GI50 < 50 nM)

----------
Kindly supply the reported % inhibition of scanMAX Kinase profiling values for the records listed here.
Test system: scanMAX kinase panel (EGFR mutant, ERBB2, ERBB4)
Assay: DiscoverX (eurofin) KINOMEscan (scanMAX platform) kinase profiling
Type: binding
Conditions: EGFR(L747-T751del.Sins)
Answers are plain numbers, in %.

See these solved cases before continuing.
{"molecule": "C=CC(=O)Nc1cc(Nc2cc(N3OCC[C@@H]3c3ccccc3)ncn2)c(OC)cc1N(C)CCN(C)C [Example 4]", "% inhibition of scanMAX Kinase profiling, %": 100}
{"molecule": "C=CC(=O)Nc1cc(Nc2cc(N3OCC[C@@H]3c3ccccc3)ncn2)c(OC)cc1N1CCN(C)CC1 [Example 6]", "% inhibition of scanMAX Kinase profiling, %": 100}
{"molecule": "C=CC(=O)Nc1cc(Nc2cc(N3OCC[C@@H]3c3cc(F)cc(F)c3)ncn2)c(OC)cc1N1CCC(N2CCN(C3CC3)CC2)CC1 [Example 57]", "% inhibition of scanMAX Kinase profiling, %": 100}
{"molecule": "C=CC(=O)Nc1cc(Nc2cc(N3OCC[C@@H]3c3cc(F)cc(F)c3)ncn2)c(OC)cc1N1CCC(N2CCOCC2)CC1 [Example 30]", "% inhibition of scanMAX Kinase profiling, %": 96}
{"molecule": "C=CC(=O)Nc1cc(Nc2cc(N3OCC[C@@H]3c3cc(F)cc(F)c3)ncn2)c(OC)cc1N1CCC(N2C[C@H]3C[C@@H]2CO3)CC1 [Example 238]", "% inhibition of scanMAX Kinase profiling, %": 92}

Give one value of % inhibition of scanMAX Kinase profiling per listed molecule.
1. C=CC(=O)Nc1cc(Nc2cc(N3OCC[C@@H]3c3cc(F)cc(F)c3)ncn2)c(OC)cc1N1CCC(N2C[C@@H]3C[C@H]2CO3)CC1 [Example 239]
2. C=CC(=O)Nc1cc(Nc2cc(N3OCC[C@@H]3c3ccccc3)ncn2)c(OC)cc1N1CCC(N2CCN(C)CC2)CC1 [Example 9]
3. C=CC(=O)Nc1cc(Nc2cc(N3OCC[C@@H]3c3cc(F)cc(F)c3)ncn2)c(OC)cc1N1CCC(N2CCN(CC)CC2)CC1 [Example 236]

Result:
1: 93; 2: 100; 3: 100
